Biological target: UniProt P97612
Sequence (P97612 whole entry): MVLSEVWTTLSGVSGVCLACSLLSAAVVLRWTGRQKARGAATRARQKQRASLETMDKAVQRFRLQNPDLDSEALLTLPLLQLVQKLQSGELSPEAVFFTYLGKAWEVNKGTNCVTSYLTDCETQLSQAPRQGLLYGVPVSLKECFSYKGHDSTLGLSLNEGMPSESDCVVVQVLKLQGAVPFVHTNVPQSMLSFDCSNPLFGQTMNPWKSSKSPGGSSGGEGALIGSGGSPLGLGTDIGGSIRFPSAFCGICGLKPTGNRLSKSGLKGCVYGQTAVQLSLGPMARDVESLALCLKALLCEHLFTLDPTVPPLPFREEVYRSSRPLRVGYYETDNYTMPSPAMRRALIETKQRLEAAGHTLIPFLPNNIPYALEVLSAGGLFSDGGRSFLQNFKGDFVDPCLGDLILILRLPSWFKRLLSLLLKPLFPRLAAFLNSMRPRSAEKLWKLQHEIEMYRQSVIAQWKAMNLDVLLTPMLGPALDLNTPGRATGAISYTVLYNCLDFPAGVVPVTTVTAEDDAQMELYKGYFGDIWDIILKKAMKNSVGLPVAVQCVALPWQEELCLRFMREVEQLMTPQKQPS
Experiment: Inhibition of FAAH in Wistar rat cerebral membrane by liquid scintillation counting
Format: cell membranes
Quantity name: IC50 (nM)
Express it in nM; write the number only.

CCCCCCCCCCCCNC(=O)Oc1cccc(-c2csnn2)c1    0.24

For this molecule ( CCCCCCNC(=O)Oc1ccc(C(=O)OC)cc1C ), measured IC50 is 55

For this molecule ( COc1ccc(CNC(=O)Oc2ccc(C3=NCCS3)cc2)cc1 ), measured IC50 is 320

For this molecule ( CCCCNC(=O)Oc1ccc(-c2csnn2)cc1 ), measured IC50 is 160

For this molecule ( O=C(NC1CCCC1)Oc1ccc(-c2csnn2)cc1 ), measured IC50 is 20

For this molecule ( O=C(Nc1ccc(-c2ccccc2)cc1)OC1CCCCC1 ), measured IC50 is 108000

###

Listed next: entries and their corresponding pIC50.
Molecular target: UniProt P97612
Sequence (P97612 whole entry): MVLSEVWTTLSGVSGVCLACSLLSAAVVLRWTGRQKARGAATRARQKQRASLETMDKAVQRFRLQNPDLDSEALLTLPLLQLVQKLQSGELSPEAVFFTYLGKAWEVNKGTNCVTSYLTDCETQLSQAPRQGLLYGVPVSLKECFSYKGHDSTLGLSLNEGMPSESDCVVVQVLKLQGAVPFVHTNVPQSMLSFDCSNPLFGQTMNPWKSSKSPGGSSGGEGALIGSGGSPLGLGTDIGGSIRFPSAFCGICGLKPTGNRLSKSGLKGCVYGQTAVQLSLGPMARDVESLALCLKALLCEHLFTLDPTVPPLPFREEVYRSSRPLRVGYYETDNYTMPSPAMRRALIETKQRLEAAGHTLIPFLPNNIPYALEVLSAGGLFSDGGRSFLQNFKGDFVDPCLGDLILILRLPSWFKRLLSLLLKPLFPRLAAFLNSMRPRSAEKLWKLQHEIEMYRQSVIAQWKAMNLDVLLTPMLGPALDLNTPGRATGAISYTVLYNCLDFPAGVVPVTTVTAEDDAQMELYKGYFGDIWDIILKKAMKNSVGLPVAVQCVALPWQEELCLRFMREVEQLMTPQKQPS
Assay: Inhibition of FAAH in Wistar rat cerebral membrane by liquid scintillation counting
Format: cell membranes
Quick note: pIC50 means taking -log10 of the concentration in moles per liter.

Below are worked cases with known answers.
CCCCNC(=O)Oc1ccc(C2=NCCO2)cc1    6.92
CCCCCCCCCCCCNC(=O)Oc1ccc(-c2csnn2)cc1    7.92
CC(C)(C)NC(=O)Oc1ccc(C2=NCCS2)cc1    5.15
Cc1ccc(CNC(=O)Oc2ccc(C3=NCCO3)cc2)cc1    6.74
O=C(NC1CCCCC1)Oc1ccc(C2=NCCS2)cc1    7.00

For this compound ( Cc1ccc(CNC(=O)Oc2ccc(C3=NCCS3)cc2)cc1 ), measured pIC50 is 6.55

For this compound ( CCCCCCNC(=O)Oc1ccc(C(=O)OC)cc1OC ), measured pIC50 is 8.26

For this compound ( O=C(NC1CCCC1)Oc1ccc(C2=NCCO2)cc1 ), measured pIC50 is 7.00

For this compound ( O=C(NC1CCCCC1)Oc1ccc(-c2csnn2)cc1 ), measured pIC50 is 7.68

For this compound ( O=C(NCc1ccccc1)Oc1ccc(-c2csnn2)cc1 ), measured pIC50 is 7.36

For this compound ( O=C(NCCc1ccccc1)Oc1ccc(C2=NCCS2)cc1 ), measured pIC50 is 7.42
